Source listed as the RNAGym collection of RNA variant scans (doi:10.1073/pnas.2313332121).

B1: TPR 5TU (parent)
chain: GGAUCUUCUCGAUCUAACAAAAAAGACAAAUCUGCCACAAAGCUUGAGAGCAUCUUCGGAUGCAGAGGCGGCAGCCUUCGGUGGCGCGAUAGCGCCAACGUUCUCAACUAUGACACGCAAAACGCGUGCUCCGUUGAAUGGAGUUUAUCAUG

- Variants of: B1
- Test Method Notes: polymerase ribozyme fitness, log enrichment relative to wild type (log ratio); higher = more active; in vitro selection for triplet polymerase activity
Variants at the floor of the assay were thinned out.
The threshold is inclusive: polymerase ribozyme fitness (log ratio) of exactly -2 counts as label 1; values below receive label 0.

Variant Designation	Class Label
A21G A41G C93A C132A	label 0
C114A U144G	label 0
G74C C118U	label 0
G88A A110G	label 0
G11A C35U C51U U61G C63U A64C C85G U90G G140A	label 0
G62U C96U	label 1
U55A G58A A89C A120U U134C	label 1
A22U A24U G58C A89U G143C	label 0
U45A A73U	label 0
G50A U56C	label 1
A37C C95A A97C A121U	label 0
C5A A20C C35A G62A C76A C96G G140A G143C	label 0
A12G A52U C76U C93U A120U	label 0
A73C C96G C118U G143U	label 0
U6G U31G G84U	label 1
A39U A47G C95U A110G	label 0
C118G A150G	label 0
A3G A19C G92A A98G	label 0
C51G C85U	label 1
A19U U44A C95U C99G	label 0
A22C C27G C76U C96G G140U	label 0
A21C U44A C75A C96A	label 0
A12G A41G C85G A106G	label 1
A120G G141A	label 1
G86U A137G	label 0
U53G A113U	label 0
G48A G67A U77C A97U U145G A150U	label 0
C96A U144A	label 1
C43U C54A U55C C85U C99G A147G	label 0
A30U C87G U101G U146A C149G	label 0
U6G G68A	label 0
U33C G50A	label 0
A3G U4A U53C G59U U61A G71C C85A	label 0
A17G G42C C43A C85A G143U	label 0
A3U A37U C96U C118G	label 0
U7A U55A C85U C114A G136C	label 0
C27G G71A A138C A142C	label 0
A3C C10G G11U A47U G48A G58C U82G G83A A137U	label 0
C93A G94A	label 0
A21U G141C	label 1
C18A A20U C27G A30U U56G A64U G84U U102C G112U G124C	label 0
A17U C18A C35U C36G C105A	label 0
